Recorded Ki values for a group of molecules are listed next.
# System Under Test: human orexin 1 receptor (Homo sapiens, UniProt O43613)
# Sequence (O43613 1-425): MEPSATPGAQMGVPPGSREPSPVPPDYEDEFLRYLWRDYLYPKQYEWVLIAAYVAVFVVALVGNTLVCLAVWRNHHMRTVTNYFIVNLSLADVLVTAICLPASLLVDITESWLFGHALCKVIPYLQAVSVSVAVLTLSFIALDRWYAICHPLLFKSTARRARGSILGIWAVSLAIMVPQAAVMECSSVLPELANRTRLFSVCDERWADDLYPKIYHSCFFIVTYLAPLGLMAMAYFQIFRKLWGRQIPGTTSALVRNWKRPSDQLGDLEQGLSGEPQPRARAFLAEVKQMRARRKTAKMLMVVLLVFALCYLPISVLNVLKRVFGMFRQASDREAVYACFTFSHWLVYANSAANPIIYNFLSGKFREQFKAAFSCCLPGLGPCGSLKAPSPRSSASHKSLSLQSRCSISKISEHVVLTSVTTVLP
# Procedure Summary: Calcium accumulation in cells (FLIPR), antagonism of orexin A, human orexin 1 receptor
# Recorded Conditions: calcium accumulation, antagonism of orexin A, Cheng-Prusoff corrected; read-out: FLIPR hOx1R Ki
Metric Name: Ki (nM)

Molecule: Cc1cccc(N2CCC3(CCN(Cc4c[nH]c5ccccc45)C3=O)C2)n1 (centres unmarked) [Example 5.27]
Metric Name: Ki
Numeric Value: 2390
//
Molecule: O=C1OCC2(CCN(c3cnc4ccccc4n3)CC2)N1Cc1cccc2[nH]ccc12 [Example 8.22]
Metric Name: Ki
Numeric Value: 645
//
Molecule: Cc1cc(C)nc(N2CCC3(CC2)NCCN(Cc2nn(C)cc2-c2cccc(OC4CC4)c2)C3=O)n1 [Example 1.62]
Metric Name: Ki
Numeric Value: 163
//
Molecule: COc1cccc(-c2ocnc2CN2CCNC3(CCN(c4nccc(C)n4)CC3)C2=O)c1 [Example 1.10]
Metric Name: Ki
Numeric Value: 2610
//
Molecule: COc1cc(C)nc(N2CCC3(CCN(Cc4ccccc4-c4nc(C)no4)C3=O)C2)n1 (centres unmarked) [Example 5.42]
Metric Name: Ki
Numeric Value: 1950
//
Molecule: COc1ccnc(N2CC[C@]3(CCN(Cc4c[nH]c5ccccc45)C3=O)C2)n1 [Example 5.3]
Metric Name: Ki
Numeric Value: 2640
//
Molecule: COCc1cccc(-c2ocnc2CN2CCNC3(CCN(c4nc(C)cc(OC)n4)CC3)C2=O)c1 [Example 1.29]
Metric Name: Ki
Numeric Value: 1430
//
Molecule: O=C1N(Cc2c[nH]c3ccccc23)CCC12CCN(c1nc3ccccc3o1)C2 (centres unmarked) [Example 5.8]
Metric Name: Ki
Numeric Value: 739

====

# System Under Test: human orexin 2 receptor (Homo sapiens, UniProt O43614)
# Construct: expressed in transfected cells
# Sequence (O43614 whole entry): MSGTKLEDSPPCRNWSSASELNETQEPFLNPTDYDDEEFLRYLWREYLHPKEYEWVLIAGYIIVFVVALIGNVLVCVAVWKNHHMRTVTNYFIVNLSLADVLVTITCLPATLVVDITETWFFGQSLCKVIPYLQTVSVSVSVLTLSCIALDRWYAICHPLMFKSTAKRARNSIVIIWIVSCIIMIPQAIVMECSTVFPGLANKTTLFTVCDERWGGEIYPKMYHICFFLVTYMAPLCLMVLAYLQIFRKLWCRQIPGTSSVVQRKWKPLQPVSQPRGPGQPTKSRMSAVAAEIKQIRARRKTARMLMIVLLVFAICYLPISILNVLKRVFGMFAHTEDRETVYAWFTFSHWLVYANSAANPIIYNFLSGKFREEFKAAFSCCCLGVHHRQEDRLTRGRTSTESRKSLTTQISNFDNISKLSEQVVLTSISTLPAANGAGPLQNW
# Procedure Summary: Calcium accumulation in cells (FLIPR), antagonism of orexin A, human orexin 2 receptor
# Assay type: cell-based
# Recorded Conditions: calcium accumulation, antagonism of orexin A, Cheng-Prusoff corrected; read-out: FLIPR hOx2R Ki
# Experimental: Calcium Accumulation in Cells (FLIPR): Cells expressing human orexin 1 or human orexin 2 receptors, were seeded at 8,000 cells/well in 384 well black-walled clear bottom, poly-D-lysine coated plates. […] On the day of the experiment, the cells seeded in black plates were treated with assay buffer containing the Ca^2+ sensitive fluorescent dye Fluo-4-AM (2 μM), and probenecid (0.1 mM). […] Fluorescence measurements were then continued every 1 S for 120 S followed by every 4 S for 240 S. […]
pKi: −log10 of the molar value.
Metric Name: pKi

Compound: COc1cc(C)nc(N2CCC3(CCN(Cc4c[nH]c5ccccc45)C3=O)C2)n1 (centres unmarked) [Example 5.4]
Numeric Value: 6.92

Compound: O=C1N(Cc2c[nH]c3ccccc23)CCC12CCN(c1nc3ccccc3o1)CC2 [Example 3.13]
Numeric Value: 6.47

Compound: Cc1cc(C)nc(N2CCC3(CC2)OCCN(Cc2c(-c4ccccc4)nnn2C)C3=O)n1 [Example 2.15]
Numeric Value: 5.67

Compound: COc1cc(C)nc(N2CCC3(CCN(Cc4ccccc4-c4nc(C)no4)C3=O)CC2)n1 [Example 3.20]
Numeric Value: 7.37

Compound: COc1nc(C)cc(N2CCC3(CC2)NCCN(Cc2c[nH]c4ccccc24)C3=O)n1 [Example 1.66]
Numeric Value: 6.20

Compound: Cc1ccnc(N2CCC3(CC2)NCCN(Cc2nc(C)oc2-c2ccccc2)C3=O)n1 [Example 1.20]
Numeric Value: 5.74

Compound: Cc1cc(C)nc(N2CCC3(CC2)NCCN(Cc2n[nH]c4ccccc24)C3=O)n1 [Example 1.50]
Numeric Value: 7.07

Compound: COc1cc(C)nc(N2CCC3(CC2)NCCN(Cc2n[nH]c4ccccc24)C3=O)n1 [Example 1.65]
Numeric Value: 7.68
